SYSTEM_UNDER_TEST: T1, Human CD3 delta (CD3 delta) protein (His Tag) (human, UniProt P04234 22-105)
T1 construct: extracellular domain; Bought protein; not shown: His tag
ASSAY_OVERVIEW: ELISA, antigen coated on plate, HRP-labelled 2nd antibody; also: test concentration or dose not given here
ENDPOINT: ELISA (A450)
Give your result in A450 as a bare value.

BINDER	ENDPOINT	VALUE
WBP3311_2.306.4 (antibody, IgG2b, V domains shown, Mouse monoclonal antibody from hybridoma; also called W3311-2.306.4; W3311-2.306.4-mIgG2bK) VH: QVQLQQSGPELVKPGASVRISCKASGFAFTDYYIHWVKQRPGQGLEWIGWISPGNVNTKYNENFKGRATLTADLSSSTAYMQLSSLTSEDSAVYFCARDGYSLYYFDYWGQGTTLTVSS VL: DIVMSQSPSSLTVSAGEKVTMSCKSSQSLLNSRTRKNYLAWYQQKPGQSPKLLIYWASTRQSGVPDRFTGSGSGTAFTLTISGVQAEDLAVYFCTQSHTLRTFGGGTKLEIK	ELISA (A450)	0.05

--- query ---
Qu. Consider the binder WBP3311_2.844.8 (antibody, V domains shown, Mouse monoclonal antibody from hybridoma; also called W3311-2.844.8; clone 2.844.8) VH: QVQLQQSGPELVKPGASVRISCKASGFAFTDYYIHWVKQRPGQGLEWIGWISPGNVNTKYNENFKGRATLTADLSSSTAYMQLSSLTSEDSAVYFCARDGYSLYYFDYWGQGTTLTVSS VL: DIVMSQSPSSLTVSAGEKVTMSCKSSQSLLNSRTRKNYLAWYQQKPGQSPKLLIYWASTRESGVPDRFTGSGSGTAFTLTISGVQAEDLAVYFCTQSHTLRTFGGGTKLEIK and give its measured ELISA (A450).
Ans. 0.06
